Below, each entry is listed with its recorded mass density.
Settings: 293.15 K; 101.33 kPa; Liquid; Vibrating tube method
// units = kg/m3; emit number, no label

Use these answered entries as a reference point.
compound | parameter | recorded_value
CC(=O)N(C)C [N,N-dimethylethanamide] | mass density | 940.74
CCC(=O)[NH+](C)C.O=S(=O)([N-]S(=O)(=O)C(F)(F)F)C(F)(F)F | mass density | 1525.62
CN(C)C=O [dimethylformamide] | mass density | 948.61

Now for another entry.
**Q:** What mass density value was documented for this compound, CCC(=O)N(C)C [N,N-dimethylpropionamide] ?
**A:** 924.75

----------
Settings: 323.15 K; 101.33 kPa; Liquid; Concentric cylinders viscometry
± gives the expanded uncertainty stated by the source.
Below, each entry is listed with its recorded viscosity.

compound | viscosity
CCC(=O)N(C)C [N,N-dimethylpropionamide] | 0.696 ± 0.017 mPa·s
CCC(=O)[NH+](C)C.O=S(=O)([N-]S(=O)(=O)C(F)(F)F)C(F)(F)F | 39.33 ± 0.82 mPa·s
CC(=O)N(C)C [N,N-dimethylethanamide] | 0.692 ± 0.015 mPa·s
CC(=O)[NH+](C)C.O=S(=O)([N-]S(=O)(=O)C(F)(F)F)C(F)(F)F [N,N-dimethylacetamidium bis(trifluoromethanesulfonyl)amide] | 44.71 ± 0.93 mPa·s

Now for another entry.
**Q:** What viscosity value was documented for this compound, CN(C)C=O [dimethylformamide] ?
**A:** 0.615 ± 0.013 mPa·s

----------
Conditions: 283.15 K; 101.33 kPa; Liquid; Vibrating tube method
± gives the expanded uncertainty stated by the source.
Below, each entry is listed with its recorded mass density.
Put down the number, then write its unit next to it.

compound | mass density
CCC(=O)[NH+](C)C.O=S(=O)([N-]S(=O)(=O)C(F)(F)F)C(F)(F)F | 1536.2 ± 1.7 kg/m3
CN(C)C=O [dimethylformamide] | 958.1 ± 0.12 kg/m3
CCC(=O)N(C)C [N,N-dimethylpropionamide] | 933.6 ± 3.8 kg/m3

Now for another entry.
**Q:** What mass density value was documented for this compound, CC(=O)N(C)C [N,N-dimethylethanamide] ?
**A:** 949.95 ± 0.97 kg/m3

----------
Conditions: 313.15 K; 101.33 kPa; Liquid; Vibrating tube method
Below, each entry is listed with its recorded mass density.
// units = kg/m3; emit number, no label

molecule | recorded_value
CCC(=O)N(C)C [N,N-dimethylpropionamide] | 907.04
CC(=O)[NH+](C)C.O=S(=O)([N-]S(=O)(=O)C(F)(F)F)C(F)(F)F [N,N-dimethylacetamidium bis(trifluoromethanesulfonyl)amide] | 1549.8
CN(C)C=O [dimethylformamide] | 929.5
CC(=O)N(C)C [N,N-dimethylethanamide] | 922.26

Now for another entry.
**Q:** What mass density value was documented for this molecule, CCC(=O)[NH+](C)C.O=S(=O)([N-]S(=O)(=O)C(F)(F)F)C(F)(F)F ?
**A:** 1504.73

----------
Below, each entry is listed with its recorded viscosity.
Conditions: 298.15 K; 101.33 kPa; Liquid; Concentric cylinders viscometry
// units = mPa·s; emit number, no label

Use these answered entries as a reference point.
molecule | unit_label | viscosity
CCC(=O)[NH+](C)C.O=S(=O)([N-]S(=O)(=O)C(F)(F)F)C(F)(F)F | mPa·s | 117.7
CN(C)C=O [dimethylformamide] | mPa·s | 0.81
CC(=O)N(C)C [N,N-dimethylethanamide] | mPa·s | 0.946

**Q:** What viscosity value was documented for this molecule, CCC(=O)N(C)C [N,N-dimethylpropionamide] ?
**A:** 0.958

----------
Below, each entry is listed with its recorded viscosity.
Settings: 303.15 K; 101.33 kPa; Liquid; Concentric cylinders viscometry
// units = mPa·s; emit number, no label

molecule | unit_label | viscosity
CCC(=O)[NH+](C)C.O=S(=O)([N-]S(=O)(=O)C(F)(F)F)C(F)(F)F | mPa·s | 91.33

**Q:** What viscosity value was documented for this molecule, CC(=O)N(C)C [N,N-dimethylethanamide] ?
**A:** 0.883

**Q:** What viscosity value was documented for this molecule, CN(C)C=O [dimethylformamide] ?
**A:** 0.765

**Q:** What viscosity value was documented for this molecule, CCC(=O)N(C)C [N,N-dimethylpropionamide] ?
**A:** 0.892

----------
Conditions: 288.15 K; 101.33 kPa; Liquid; Concentric cylinders viscometry
parameter: viscosity (mPa·s)
// units = mPa·s; emit number, no label

**Q:** What viscosity value was documented for this compound, CN(C)C=O [dimethylformamide] ?
**A:** 0.891

----------
Settings: 343.15 K; 101.33 kPa; Liquid; Vibrating tube method
Below, each entry is listed with its recorded mass density.
// units = kg/m3; emit number, no label

compound | recorded_value
CC(=O)N(C)C [N,N-dimethylethanamide] | 894.31

**Q:** What mass density value was documented for this compound, CN(C)C=O [dimethylformamide] ?
**A:** 900.41

**Q:** What mass density value was documented for this compound, CC(=O)[NH+](C)C.O=S(=O)([N-]S(=O)(=O)C(F)(F)F)C(F)(F)F [N,N-dimethylacetamidium bis(trifluoromethanesulfonyl)amide] ?
**A:** 1518.6

**Q:** What mass density value was documented for this compound, CCC(=O)N(C)C [N,N-dimethylpropionamide] ?
**A:** 880.17

**Q:** What mass density value was documented for this compound, CCC(=O)[NH+](C)C.O=S(=O)([N-]S(=O)(=O)C(F)(F)F)C(F)(F)F ?
**A:** 1474.06

----------
Details: 288.15 K; 101.33 kPa; Liquid; Vibrating tube method
Below, each entry is listed with its recorded mass density.
// units = kg/m3; emit number, no label

Use these answered entries as a reference point.
compound | recorded_value
CCC(=O)N(C)C [N,N-dimethylpropionamide] | 929.18
CC(=O)N(C)C [N,N-dimethylethanamide] | 945.35
CCC(=O)[NH+](C)C.O=S(=O)([N-]S(=O)(=O)C(F)(F)F)C(F)(F)F | 1530.91

Now for another entry.
**Q:** What mass density value was documented for this compound, CN(C)C=O [dimethylformamide] ?
**A:** 953.37

----------
Conditions: 303.15 K; 101.33 kPa; Liquid; Vibrating tube method
Numbers after ± are expanded uncertainties.
parameter: mass density
Put down the number, then write its unit next to it.

compound | recorded_value
CC(=O)N(C)C [N,N-dimethylethanamide] | 931.51 ± 0.96 kg/m3
CCC(=O)[NH+](C)C.O=S(=O)([N-]S(=O)(=O)C(F)(F)F)C(F)(F)F | 1515.12 ± 1.6 kg/m3
CCC(=O)N(C)C [N,N-dimethylpropionamide] | 915.93 ± 3.7 kg/m3

Now for another entry.
**Q:** What mass density value was documented for this compound, CN(C)C=O [dimethylformamide] ?
**A:** 939.07 ± 0.13 kg/m3

----------
Conditions: 353.15 K; 101.33 kPa; Liquid; Vibrating tube method
parameter: mass density (kg/m3)
// units = kg/m3; emit number, no label

compound | recorded_value
CC(=O)N(C)C [N,N-dimethylethanamide] | 884.9

Now for another entry.
**Q:** What mass density value was documented for this compound, CC(=O)[NH+](C)C.O=S(=O)([N-]S(=O)(=O)C(F)(F)F)C(F)(F)F [N,N-dimethylacetamidium bis(trifluoromethanesulfonyl)amide] ?
**A:** 1508.1

----------
Below, each entry is listed with its recorded viscosity.
Conditions: 333.15 K; 101.33 kPa; Liquid; Concentric cylinders viscometry
// units = mPa·s; emit number, no label

Use these answered entries as a reference point.
molecule | parameter | recorded_value
CC(=O)N(C)C [N,N-dimethylethanamide] | viscosity | 0.614
CCC(=O)[NH+](C)C.O=S(=O)([N-]S(=O)(=O)C(F)(F)F)C(F)(F)F | viscosity | 27.84
CN(C)C=O [dimethylformamide] | viscosity | 0.535
CC(=O)[NH+](C)C.O=S(=O)([N-]S(=O)(=O)C(F)(F)F)C(F)(F)F [N,N-dimethylacetamidium bis(trifluoromethanesulfonyl)amide] | viscosity | 31.31

**Q:** What viscosity value was documented for this molecule, CCC(=O)N(C)C [N,N-dimethylpropionamide] ?
**A:** 0.618

----------
Below, each entry is listed with its recorded viscosity.
Conditions: 278.15 K; 101.33 kPa; Liquid; Concentric cylinders viscometry
± gives the expanded uncertainty stated by the source.

compound | recorded_value
CC(=O)N(C)C [N,N-dimethylethanamide] | 1.29 ± 0.03 mPa·s
CN(C)C=O [dimethylformamide] | 1.06 ± 0.02 mPa·s
CCC(=O)[NH+](C)C.O=S(=O)([N-]S(=O)(=O)C(F)(F)F)C(F)(F)F | 401.3 ± 13 mPa·s

**Q:** What viscosity value was documented for this compound, CCC(=O)N(C)C [N,N-dimethylpropionamide] ?
**A:** 1.32 ± 0.03 mPa·s
